The entries below come with measured cAMP EC50 values attached.
# targetSystem: T1, human GIP receptor (human, UniProt P48546 22-466)
# T1 sequence (looked up): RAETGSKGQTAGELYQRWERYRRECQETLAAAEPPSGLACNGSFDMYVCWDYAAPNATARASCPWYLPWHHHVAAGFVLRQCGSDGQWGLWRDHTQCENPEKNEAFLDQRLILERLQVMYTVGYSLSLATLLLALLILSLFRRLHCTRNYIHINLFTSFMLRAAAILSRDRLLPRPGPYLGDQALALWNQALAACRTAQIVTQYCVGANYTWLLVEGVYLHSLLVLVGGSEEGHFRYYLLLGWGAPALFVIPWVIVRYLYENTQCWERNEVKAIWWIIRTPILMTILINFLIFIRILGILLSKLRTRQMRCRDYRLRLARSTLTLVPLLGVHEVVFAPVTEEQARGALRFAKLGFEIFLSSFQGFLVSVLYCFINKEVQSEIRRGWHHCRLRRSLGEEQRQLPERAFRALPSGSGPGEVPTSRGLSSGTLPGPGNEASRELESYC
# assayRemarks: cell-based or functional assay
*1 amine or outer side, *2 acyl side, *3 side chain or, on linkers, in order; H or OH if unused. Where no end group is shown, it is not given here. Side-chain parts run from the residue outwards. [ ]: non-standard residue; d: D form. The star is where a group is joined. Decanoyl(10-(4-HOOC-PhO)) = O=C(O)c1ccc(OCCCCCCCCCC(=O)*)cc1; αMePhe(2-F) = C[C@](N)(Cc1ccccc1F)C(=O)O; γGlu = O=C(O)[C@H](CCC(=O)[*:2])N[*:1]; αMeY = C[C@](N)(Cc1ccc(O)cc1)C(=O)O; αMeL = CC(C)C[C@](C)(N)C(=O)O; Nle = CCCC[C@H](N)C(=O)O; Orn = NCCC[C@H](N)C(=O)O; AEEA = NCCOCCOCC(=O)O; Aib = CC(C)(N)C(=O)O
Give the quantity in nM, number only.

Some solved cases for reference:
INSERT INTO results (binder, scaleunit, reading) VALUES
  ('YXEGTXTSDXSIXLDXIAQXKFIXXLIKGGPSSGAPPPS (Aib2, αMeF(2F)6, hTyr10, αMeL13, Orn16, Aib20, D-Glu24, αMeY25; K21 and K28: AEEA2-(γ-Glu)-(10-(4-carboxyphenoxy)decanoyl); C-terminal NH2) [Example 332]', 'nM', 0.0109),
  ('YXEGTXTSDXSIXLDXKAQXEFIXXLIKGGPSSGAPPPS (Aib2, αMeF(2F)6, hTyr10, αMeL13, Orn16, Aib20, D-Glu24, αMeY25; K17 and K28: AEEA2-(γ-Glu)-CO-(CH2)10-CH3; C-terminal NH2) [Example 335]', 'nM', 0.00871),
  ('Y[Aib]EGT[αMePhe(2-F)]TSD[Nle]SI[αMeL]LD[Orn]IAQ[Aib]EFIK([AEEA-AEEA-γGlu-Decanoyl(10-(4-HOOC-PhO))])[αMeY]LIK([AEEA-AEEA-γGlu-Decanoyl(10-(4-HOOC-PhO))])GGPSSGAPPPS-NH2 [Example 314]', 'nM', 0.0216),
  ('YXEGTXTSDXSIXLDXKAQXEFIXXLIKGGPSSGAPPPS (Aib2, αMeF(2F)6, hTyr10, αMeL13, Orn16, Aib20, D-Glu24, αMeY25; K17 and K28: AEEA2-(γ-Glu)-(10-(4-carboxyphenoxy)decanoyl); C-terminal NH2) [Example 327]', 'nM', 0.018),
  ('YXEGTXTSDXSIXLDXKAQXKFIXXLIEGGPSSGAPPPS (Aib2, αMeF(2F)6, hTyr10, αMeL13, Orn16, Aib20, D-Glu24, αMeY25; K17 and K21: AEEA2-(γ-Glu)-CO-(CH2)10-CH3; C-terminal NH2) [Example 323]', 'nM', 0.00793);

Ask: Determine from records and report cAMP EC50 for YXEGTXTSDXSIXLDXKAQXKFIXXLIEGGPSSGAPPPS (Aib2, αMeF(2F)6, Nle10, αMeL13, Orn16, Aib20, D-Glu24, αMeY25; K17 and K21: AEEA2-(γ-Glu)-(10-(4-carboxyphenoxy)decanoyl); C-terminal NH2) [Example 321]
Reply: 0.0107

Ask: Given the binder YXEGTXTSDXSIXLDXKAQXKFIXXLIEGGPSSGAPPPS (Aib2, αMeF(2F)6, hTyr10, αMeL13, Orn16, Aib20, D-Glu24, αMeY25; K17 and K21: AEEA2-(γ-Glu)-(10-(4-carboxyphenoxy)decanoyl); C-terminal NH2) [Example 320] , write its reported cAMP EC50.
Reply: 0.0144

Ask: Respond only with cAMP EC50 recorded for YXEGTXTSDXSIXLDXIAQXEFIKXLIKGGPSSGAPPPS (Aib2, αMeF(2F)6, hTyr10, αMeL13, Orn16, Aib20, αMeY25; K24 and K28: AEEA2-(γ-Glu)-(10-(4-carboxyphenoxy)decanoyl); C-terminal NH2) [Example 310]
Reply: 0.025

Ask: Give cAMP EC50 for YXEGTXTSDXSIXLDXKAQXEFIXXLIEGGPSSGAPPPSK (Aib2, αMeF(2F)6, OMeY10, αMeL13, Orn16, Aib20, D-Glu24, αMeY25; K17 and K40: AEEA2-(γ-Glu)-CO-(CH2)10-CH3; C-terminal NH2) [Example 291]
Reply: 0.012

Ask: In one line, give reported cAMP EC50 of the entry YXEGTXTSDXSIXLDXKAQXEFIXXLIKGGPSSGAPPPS (Aib2, αMeF(2F)6, Nle10, αMeL13, Orn16, Aib20, D-Glu24, αMeY25; K17 and K28: AEEA2-(γ-Glu)-(10-(4-carboxyphenoxy)decanoyl); C-terminal NH2) [Example 328] .
Reply: 0.00973
